target: ligand binding domain of human FXR (Homo sapiens (Human)); assay: FXR ligand binding assay (LanthaScreen TR-FRET, SRC2-2 peptide recruitment); conditions: extent of activation relative to GW4064; read-out: % Efficacy
Measured property: Emax (%)
Kindly answer with a numeric value in %, unit omitted.

Observe how each entry below is paired with its result.
O=C(NS(=O)(=O)C1CC1)c1ccc(N2C[C@@H]3C[C@H]2C[C@H]3OCc2c(-c3c(Cl)cccc3Cl)noc2C2(F)CC2)nc1 = 160
O=C(O)c1ccc(N2C(=O)[C@@H]3C[C@H]2C[C@H]3OCc2c(-c3c(Cl)cccc3Cl)noc2C2CC2)cc1C1CC1 = 118
CC1(C)CC(S(=O)(=O)NC(=O)c2ncc(N3C(=O)[C@@H]4C[C@H]3C[C@H]4OCc3c(-c4c(Cl)cccc4Cl)noc3C3CC3)cc2F)CCO1 (stereo partly shown) = 166
O=C(O)c1ccc(N2C(=O)[C@@H]3C[C@H]2C[C@H]3OCc2c(-c3c(Cl)cccc3Cl)noc2C2CC2)cc1F = 145
Cc1cc(N2C[C@@H]3C[C@H]2C[C@H]3OCc2c(-c3c(Cl)cccc3Cl)noc2C2CC2)ccc1C(=O)O = 132

Request: Supply measured Emax of O=C(O)c1cc(C2CC2)c2nc(N3C[C@@H]4C[C@H]3C[C@H]4OCc3c(-c4c(Cl)cccc4Cl)noc3C3CC3)sc2c1 in your reply.
Result: 146

Request: Supply measured Emax of C[C@H]1[C@H]2C[C@H](C[C@@H]2OCc2c(-c3c(Cl)cccc3Cl)noc2C2CC2)N1c1ccc(C(=O)O)cn1 in your reply.
Result: 79

Request: Supply measured Emax of O=C(O)c1cc(F)c2nc(N3C[C@@H]4C[C@H]3C[C@H]4OCc3c(-c4c(Cl)cccc4Cl)noc3C3(F)CC3)sc2c1 in your reply.
Result: 180

Request: Supply measured Emax of CCCS(=O)(=O)NC(=O)c1ccc(N2C[C@@H]3C[C@H]2C[C@H]3OCc2c(-c3c(Cl)cccc3Cl)noc2C2(F)CC2)nc1 in your reply.
Result: 166

Request: Supply measured Emax of O=C(O)c1cc(F)c2nc(N3C[C@@H]4C[C@H]3C[C@H]4OCc3c(C4CCC5(CC4)CC5)noc3C3CC3)sc2c1 in your reply.
Result: 106

Request: Supply measured Emax of O=c1[nH]c2cc(N3C[C@@H]4C[C@H]3C[C@H]4OCc3c(-c4c(Cl)cccc4Cl)noc3C3CC3)ccc2o1 in your reply.
Result: 142

Request: Supply measured Emax of COC(=O)c1ccc(N2C[C@@H]3C[C@H]2C[C@H]3OCc2c(-c3c(Cl)cccc3Cl)noc2C2CC2)cc1F in your reply.
Result: 130

Request: Supply measured Emax of O=C1OCc2cc(N3C[C@@H]4C[C@H]3C[C@H]4OCc3c(-c4c(Cl)cccc4Cl)noc3C3CC3)ccc21 in your reply.
Result: 137

---

Recorded pEC50 by entry
target: ligand binding domain of human FXR (Homo sapiens (Human), UniProt Q96RI1); test: FXR ligand binding assay (LanthaScreen TR-FRET, SRC2-2 peptide recruitment); settings: -log EC50, concentration required to produce 50% activation
Sequence (Q96RI1 262-486): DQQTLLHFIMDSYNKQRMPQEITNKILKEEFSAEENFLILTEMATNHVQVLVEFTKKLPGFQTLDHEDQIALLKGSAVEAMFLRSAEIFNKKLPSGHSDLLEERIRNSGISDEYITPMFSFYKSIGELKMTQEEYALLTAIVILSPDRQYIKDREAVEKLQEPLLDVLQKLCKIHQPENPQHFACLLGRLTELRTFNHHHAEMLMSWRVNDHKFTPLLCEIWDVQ
A bare number is all that is needed in reply.

Observe how each entry below is paired with its result.
CC(=O)OCCS(=O)(=O)NC(=O)c1ccc(N2C[C@@H]3C[C@H]2C[C@H]3OCc2c(-c3c(Cl)cccc3Cl)noc2C2CC2)cc1 [Compound I-211] = 8.4
O=C(NS(=O)(=O)CCC1CCOC1)c1ccc(N2C(=O)[C@@H]3C[C@H]2C[C@H]3OCc2c(-c3c(Cl)cccc3Cl)noc2C2CC2)cc1F (stereo partly drawn) [Compound I-336] = 8.6
O=C(O)c1cnc(N2C[C@@H]3C[C@H]2C[C@H]3OCc2c(-c3c(Cl)cccc3Cl)noc2C2(F)CC2)c(F)c1 [Compound I-130] = 8
Cc1cccc(C)c1-c1noc(C2CC2)c1CO[C@@H]1C[C@@H]2C[C@H]1CN2c1nc2c(C)cc(C(=O)O)cc2s1 [Compound I-276] = 8.2
C[C@@H]1[C@@H]2C[C@@H](C[C@H]2OCc2c(-c3c(Cl)cccc3Cl)noc2C2CC2)N1c1ccc(C(=O)NS(=O)(=O)C2CCOCC2)cn1 [Compound I-373] = 7.2
O=C(O)c1ccc(N2C(=O)[C@@H]3C[C@H]2C[C@H]3OCc2c(-c3c(Cl)cccc3Cl)noc2C2CC2)nc1 [Compound I-322] = 7.4
O=C(NS(=O)(=O)C1CCC1)c1ccc(N2C[C@@H]3C[C@H]2C[C@H]3OCc2c(-c3c(Cl)cccc3Cl)noc2C2CC2)cc1 [Compound I-183] = 8.6
CCCS(=O)(=O)NC(=O)c1ccc(N2C[C@@H]3C[C@H]2C[C@H]3OC(=O)c2c(-c3c(Cl)cccc3Cl)noc2C2CC2)cc1 [Compound I-46] = 7.9

Request: Supply measured pEC50 of C[C@H]1[C@H]2C[C@H](C[C@@H]2OCc2c(-c3c(Cl)cccc3Cl)noc2C2CC2)N1c1ccc(C(=O)O)nc1 [Compound I-368] in your reply.
Result: 5.8

Request: Supply measured pEC50 of O=C(NS(=O)(=O)CC1CCOC1)c1ccc(N2C[C@@H]3C[C@H]2C[C@H]3OCc2c(-c3c(Cl)cccc3Cl)noc2C2CC2)cc1 (stereo partly drawn) [Compound I-186] in your reply.
Result: 8.9

Request: Supply measured pEC50 of Cc1cccc(C)c1-c1noc(C2CC2)c1CO[C@@H]1C[C@@H]2C[C@H]1CN2c1ccc(C(=O)O)cc1 [Compound I-117] in your reply.
Result: 8.2

Request: Supply measured pEC50 of O=C(CCc1ccc(N2C[C@@H]3C[C@H]2C[C@H]3OCc2c(-c3c(Cl)cccc3Cl)noc2C2CC2)c(F)c1)OCCN(CCO)CCO [Compound I-163] in your reply.
Result: 7.5
